Provenance of the data: the Human Domainome abundance scans (Beltran et al. 2025)

B1: Ankyrin-3, residues 4094 to 4171; numbered along this chain, Q12955 (parent)
chain: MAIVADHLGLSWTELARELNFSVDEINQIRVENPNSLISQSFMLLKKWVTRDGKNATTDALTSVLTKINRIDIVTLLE

variants of: B1; assay: abundance fitness (aPCA) (normalised: wild type 0, dead -1); higher = more abundant; growth selection in yeast, the domain comes from the species named; conditions: Homo sapiens
MEASUREMENT LABEL: abundance fitness

MUTATION: I71M
QUANTITATIVE RESULT: 0.039

MUTATION: L15R
QUANTITATIVE RESULT: -0.869

MUTATION: V23L
QUANTITATIVE RESULT: -0.048

MUTATION: E14S
QUANTITATIVE RESULT: -0.098

MUTATION: T57I
QUANTITATIVE RESULT: -0.779

MUTATION: L65M
QUANTITATIVE RESULT: -0.651

MUTATION: N55C
QUANTITATIVE RESULT: -0.157

MUTATION: E32A
QUANTITATIVE RESULT: -0.039

MUTATION: S41R
QUANTITATIVE RESULT: -0.725

MUTATION: N27P
QUANTITATIVE RESULT: -0.926

MUTATION: I3S
QUANTITATIVE RESULT: -0.411

MUTATION: A56W
QUANTITATIVE RESULT: -0.458

MUTATION: V74E
QUANTITATIVE RESULT: -0.888

MUTATION: W48C
QUANTITATIVE RESULT: -0.868

MUTATION: P34V
QUANTITATIVE RESULT: -1.11

MUTATION: N55G
QUANTITATIVE RESULT: 0.057

MUTATION: K54A
QUANTITATIVE RESULT: -0.019

MUTATION: F42V
QUANTITATIVE RESULT: 0.042

MUTATION: S41M
QUANTITATIVE RESULT: -0.815

MUTATION: T13N
QUANTITATIVE RESULT: -0.309

MUTATION: L76F
QUANTITATIVE RESULT: -0.231

MUTATION: A16V
QUANTITATIVE RESULT: -0.531

MUTATION: K54I
QUANTITATIVE RESULT: 0.065

MUTATION: G9H
QUANTITATIVE RESULT: -0.667

MUTATION: V64K
QUANTITATIVE RESULT: -0.333

MUTATION: D6C
QUANTITATIVE RESULT: -0.418

MUTATION: S11P
QUANTITATIVE RESULT: -1.03

MUTATION: L61S
QUANTITATIVE RESULT: -0.665

MUTATION: K47T
QUANTITATIVE RESULT: -0.149

MUTATION: A2T
QUANTITATIVE RESULT: 0.077

MUTATION: K67G
QUANTITATIVE RESULT: -0.525

MUTATION: R17E
QUANTITATIVE RESULT: -0.074

MUTATION: Q28S
QUANTITATIVE RESULT: -0.094

MUTATION: T50K
QUANTITATIVE RESULT: 0.098

MUTATION: L61R
QUANTITATIVE RESULT: -0.412

MUTATION: I29G
QUANTITATIVE RESULT: -0.927

MUTATION: E14K
QUANTITATIVE RESULT: -0.347

MUTATION: R70Q
QUANTITATIVE RESULT: -0.908

MUTATION: N33C
QUANTITATIVE RESULT: 0.034

MUTATION: S63Y
QUANTITATIVE RESULT: -0.003

MUTATION: L45W
QUANTITATIVE RESULT: -0.862

MUTATION: D6V
QUANTITATIVE RESULT: -0.296

MUTATION: A56Y
QUANTITATIVE RESULT: -0.353

MUTATION: S36F
QUANTITATIVE RESULT: -0.717

MUTATION: D6K
QUANTITATIVE RESULT: 0.155

MUTATION: A60E
QUANTITATIVE RESULT: 0.061
